Biological target: SARS-CoV-2 main protease (M^pro) (Severe acute respiratory syndrome coronavirus 2, UniProt P0DTD1)
Assay: Rapid-Fire MS Biochemical Assay measuring Mpro activity (5 nM Mpro)
Settings: Table 1B, Mpro inhibition, 5 μM substrate peptide, 120 min, read-out: Rapid-Fire Assay IC50
pIC50: −log10 of the molar value.
Each record here notes measured pIC50.

# annotated cases, reported pIC50 shown
N#C[C@@H]1CN(c2ccc(F)cc2F)C(=O)N1c1cncc2ccccc12 (single isomer, unassigned) [Compound 66b] :: < 6.00
N#C[C@H]1CN(c2ccc(C(F)F)nc2)C(=O)N1c1cncc2ccccc12 (single isomer, unassigned) [Compound 75a] :: > 7.70
N#C[C@@H]1CN(c2cccc(OC(F)F)c2)C(=O)N1c1cncc2ccccc12 (single isomer, unassigned) [Compound 89b] :: < 6.00

Looking up N#C[C@@H]1CN(C23CC(C(F)(F)F)(C2)C3)C(=O)N1c1cncc2ccccc12 (single isomer, unassigned) [Compound 137b] , I see its pIC50 listed as < 6.00

Looking up N#Cc1ccc(C(F)(F)F)cc1N1C[C@H](C#N)N(c2cncc3ccccc23)C1=O (single isomer, unassigned) [Compound 90a] , I see its pIC50 listed as > 7.70

Looking up N#Cc1ccc(Cl)cc1N1CC(C#N)N(c2cncc3ccccc23)C1=O (racemic) , I see its pIC50 listed as > 7.70

Looking up N#CC1CN(c2nc(Cl)c[nH]2)C(=O)N1c1cncc2ccccc12 (racemic) , I see its pIC50 listed as 6.70 to 7.70

Looking up N#Cc1cc(Cl)ccc1N1CC(C#N)N(c2cncc3ccccc23)C1=O (racemic) , I see its pIC50 listed as 6.70 to 7.70

Looking up Cc1ccc(OC(F)F)cc1N1C[C@@H](C#N)N(c2cncc3ccccc23)C1=O (single isomer, unassigned) [Compound 101b] , I see its pIC50 listed as < 6.00

Looking up COc1cc(C#N)ccc1N1CC(C#N)N(c2cncc3ccccc23)C1=O (racemic) , I see its pIC50 listed as 6.00 to 6.70

Looking up N#C[C@H]1CN(c2ccnc(C(F)(F)F)c2)C(=O)N1c1cncc2ccccc12 (single isomer, unassigned) [Compound 57a] , I see its pIC50 listed as > 7.70

Looking up Cc1ncc(N2C[C@H](C#N)N(c3cncc4ccccc34)C2=O)cn1 (single isomer, unassigned) [Compound 79a] , I see its pIC50 listed as 6.70 to 7.70

Looking up N#CC1CN(c2ccc(F)cc2F)C(=O)N1c1cncc2ccccc12 (racemic) , I see its pIC50 listed as 6.70 to 7.70

Looking up N#C[C@H]1CN(C2CC(C(F)(F)F)C2)C(=O)N1c1cncc2ccccc12 (mixture of isomers) , I see its pIC50 listed as < 6.00

====

Target: SARS-CoV-2 main protease (M^pro) (Severe acute respiratory syndrome coronavirus 2)
Test: Rapid-Fire MS Biochemical Assay measuring Mpro activity (5 nM Mpro)
Conditions: Table 1B, Mpro inhibition, 5 μM substrate peptide, 120 min, read-out: Rapid-Fire Assay IC50
pIC50: −log10 of the molar value.
Each record here notes measured pIC50.

# annotated cases, reported pIC50 shown
N#C[C@@H]1CN([C@H]2C[C@@H](C3CC3)C2)C(=O)N1c1cncc2ccccc12 [Compound 124d] :: < 6.00
N#C[C@@H]1CN(c2cc(F)ccc2F)C(=O)N1c1cncc2ccccc12 (single isomer, unassigned) [Compound 109b] :: < 6.00
N#CC1CN(C2CCCC(F)(F)C2)C(=O)N1c1cncc2ccccc12 (stereo not drawn) [Compound 29] :: 6.70 to 7.70
COc1cc(C#N)ccc1N1C[C@@H](C#N)N(c2cncc3ccccc23)C1=O (single isomer, unassigned) [Compound 19b] :: < 6.00
N#C[C@H]1CN(c2cccc(OC(F)(F)F)c2)C(=O)N1c1cncc2ccccc12 (single isomer, unassigned) [Compound 92a] :: > 7.70

Next molecule, please.
pIC50 on SARS-CoV-2 main protease (M^pro) (Severe acute respiratory syndrome coronavirus 2) for N#C[C@@H]1CN(c2ccc(OC(F)F)cc2)C(=O)N1c1cncc2ccccc12 (single isomer, unassigned) [Compound 71b] is < 6.00

====

Biological target: SARS-CoV-2 main protease (M^pro) (Severe acute respiratory syndrome coronavirus 2)
Assay: Rapid-Fire MS Biochemical Assay measuring Mpro activity (5 nM Mpro)
Settings: Table 1B, Mpro inhibition, 5 μM substrate peptide, 120 min, read-out: Rapid-Fire Assay IC50
Each record here notes measured IC50.

COc1ccc(C#N)cc1N1C[C@H](C#N)N(c2cncc3ccccc23)C1=O (single isomer, unassigned) [Compound 15a] :: < 20 nM
CC(C)c1ccc(N2C[C@H](C#N)N(c3cncc4ccccc34)C2=O)cn1 (single isomer, unassigned) [Compound 94a] :: < 20 nM

Looking up N#Cc1cc(Cl)ccc1N1C[C@@H](C#N)N(c2cncc3ccccc23)C1=O (single isomer, unassigned) [Compound 60b] , I see its IC50 listed as 200 to 1000 nM

Looking up COc1ccc(C(F)(F)F)cc1N1C[C@@H](C#N)N(c2cncc3ccccc23)C1=O (single isomer, unassigned) [Compound 17b] , I see its IC50 listed as > 1000 nM

Looking up N#C[C@@H]1CN(c2cccc(C(F)(F)F)n2)C(=O)N1c1cncc2ccccc12 (single isomer, unassigned) [Compound 51b] , I see its IC50 listed as > 1000 nM

Looking up N#Cc1ccc2cncc(N3C(=O)N(c4cccc(Cl)c4)C[C@H]3C#N)c2c1 (single isomer, unassigned) [Compound 39b] , I see its IC50 listed as > 1000 nM

Looking up COc1cc(N2C[C@@H](C#N)N(c3cncc4ccccc34)C2=O)ccn1 (single isomer, unassigned) [Compound 23b] , I see its IC50 listed as > 1000 nM

Looking up COc1ncc(C(F)(F)F)cc1N1C[C@@H](C#N)N(c2cncc3ccccc23)C1=O (single isomer, unassigned) [Compound 100b] , I see its IC50 listed as 200 to 1000 nM

Looking up N#CC1CN(c2ccc(F)cc2)C(=O)N1c1cncc2ccccc12 (racemic) , I see its IC50 listed as 20 to 200 nM

Looking up CS(=O)(=O)c1ccc2cncc(N3C(=O)N(c4cc(F)cc(F)c4)C[C@@H]3C#N)c2c1 (single isomer, unassigned) [Compound 86a] , I see its IC50 listed as 20 to 200 nM

Looking up Cn1c(C(F)(F)F)ccc(N2C[C@@H](C#N)N(c3cncc4ccccc34)C2=O)c1=O (single isomer, unassigned) [Compound 96b] , I see its IC50 listed as > 1000 nM

Looking up N#C[C@@H]1CN(c2ccc(C(F)F)nc2)C(=O)N1c1cncc2ccccc12 (single isomer, unassigned) [Compound 75b] , I see its IC50 listed as > 1000 nM

Looking up COc1cnc(C(F)(F)F)nc1N1C[C@H](C#N)N(c2cncc3ccccc23)C1=O (single isomer, unassigned) [Compound 31a] , I see its IC50 listed as 20 to 200 nM

====

Target: SARS-CoV-2 main protease (M^pro) (Severe acute respiratory syndrome coronavirus 2, UniProt P0DTD1)
Test: Rapid-Fire MS Biochemical Assay measuring Mpro activity (5 nM Mpro)
Settings: Table 1B, Mpro inhibition, 5 μM substrate peptide, 120 min, read-out: Rapid-Fire Assay IC50
measure: IC50

# annotated cases, reported IC50 shown
Cc1ccc(Cl)cc1N1C[C@H](C#N)N(c2cncc3ccccc23)C1=O (single isomer, unassigned) [Compound 114a] :: < 20 nM
N#Cc1cc(Cl)ccc1N1C[C@H](C#N)N(c2cncc3ccccc23)C1=O (single isomer, unassigned) [Compound 60a] :: < 20 nM
CC(=O)N1CC(N2C[C@H](C#N)N(c3cncc4ccccc34)C2=O)C1 (single isomer, unassigned) [Compound 134a] :: 200 to 1000 nM

Next compound, please.
Looking up COc1cc(C(F)(F)F)ccc1N1C[C@@H](C#N)N(c2cncc3ccccc23)C1=O (single isomer, unassigned) [Compound 12b] , I see its IC50 listed as > 1000 nM

====

Molecular target: SARS-CoV-2 main protease (M^pro) (Severe acute respiratory syndrome coronavirus 2)
Test: Rapid-Fire MS Biochemical Assay measuring Mpro activity (5 nM Mpro)
Settings: Table 1B, Mpro inhibition, 5 μM substrate peptide, 120 min, read-out: Rapid-Fire Assay IC50
measure: IC50

N#C[C@H]1CN(C23CC(F)(C2)C3)C(=O)N1c1cncc2ccccc12 (single isomer, unassigned) [Compound 139a] :: < 20 nM
N#C[C@H]1CN(c2cccc(F)c2)C(=O)N1c1cncc2ccccc12 (single isomer, unassigned) [Compound 76a] :: < 20 nM
N#C[C@H]1CN(c2ccc(OC(F)(F)F)cc2)C(=O)N1c1cncc2ccccc12 (single isomer, unassigned) [Compound 91a] :: < 20 nM
N#C[C@H]1CN([C@@H]2CCN(CCO)C2)C(=O)N1c1cncc2ccccc12 (single isomer, unassigned) [Compound 46a] :: > 1000 nM
N#C[C@@H]1CN(c2cnc(C(F)(F)F)cn2)C(=O)N1c1cncc2ccccc12 (single isomer, unassigned) [Compound 32b] :: > 1000 nM

Looking up N#C[C@@H]1CN([C@H]2CCC(F)(F)C2)C(=O)N1c1cncc2ccccc12 (single isomer, unassigned) [Compound 141b] , I see its IC50 listed as > 1000 nM

Looking up N#CC1CN(c2ccc(C(F)(F)F)cn2)C(=O)N1c1cncc2ccccc12 (racemic) [Compound 3] , I see its IC50 listed as < 20 nM
